- experimental target: T1, ZIKV quad-fusion-loop variant of the E ectodomain (ZIKV E-FL) (Zika virus, strain H/PF/2013)
- T1 construct: Variant of m8
- experiment summary: direct ELISA, antigen coated at 2 µg/ml, mAb at 0.5 µg/ml, OD 450 nm

binder	binding result
ZV-67 monoclonal antibody (antibody, V domains shown, also called ZIKV-67) VH: QAQLQQSGTGLARPGASVKLSCKASGYTFTSYGISWVTQRAGQGLEWIGVIYPRSGNTYYNEKFRGKATLTADKSSSSAYMELRGLTAEDSAVYFCARENYGSVYWGQGTTLTVSS VL: DIVMTQSQKFMSTSVGDRVSITCKASQNVGTAVAWYQQKPGQSPKLLIYSASNRYTGVPDRFTGSGSGTDFTLTISNMQSEDLADYFCQQFSSYPYTFGGGTKLEIK	binds
ZV-54 monoclonal antibody (antibody, V domains shown, also called ZIKV-54) VH: QVQLQQSGVGLARPGTSVKLSCKASGYSFTTYGISWVTQRPGQGLEWIGVIYPRSNNTYYNERFRGKATLTADKSSSSAYLELRGLTAEDSAVYFCARENYGSVYWGQGTTLTVSS VL: DIVMTQSQKFMSTSVGDRVTITCKASQSVGTAVAWYHQKPGQSPKLLIYSASNRYTGVPDRFTGSGSGTDFTLTITYMQSEDLADYFCQQFSNYPFTFGGGTKLEIK	binds
ZV-48 monoclonal antibody (antibody, V domains shown, also called ZIKV-48) VH: QVQLQQPGAELLKPGASVKLSCKASGYSFSNYWMHWVKQRPGQGPEWIGMIHPNSGNTKYNEKFKNKATLTVDKSSSMVYMQLSSLTSEDSAVFYCARLGNDMDYWGQGTSVTVSS VL: DIVMSQSPSSLAVSVGEKITMSCKSSQSLLYSNNEKNYLAWYQQKPGQSPKLLIYWASARDSGVPDRFTGSGSGTDFTLTISSVKAEDLAVFYCQQYYSYPYTFGGGTKLEIK	binds
